- ASSAY_DETAILS: Cytotoxicity against human MIHA cells assessed as cell survival rate at 50 uM incubated for 48 hrs by MTT assay relative to control
- Format: toxicity, cell-based
- RUN_PARAMETERS: read-out: Survival

RECORD_SMILES | viability at 48 h, 50 µM (%)
CN1C[C@H](c2ccccc2)[C@]2(CCC/C(=C\c3ccccc3)C2=O)[C@]12C(=O)c1cccc3cccc2c13 | 89.5

* * *

- ASSAY_DETAILS: Cytotoxicity against human PDL cells assessed as cell viability at 50 uM incubated for 48 hrs by MTT assay
- Assay type: toxicity, cell-based

RECORD_SMILES | Activity
CN1C[C@H](c2ccccc2)[C@]2(CN(C(=O)OC(C)(C)C)C/C(=C\c3ccccc3)C2=O)[C@]12C(=O)Nc1ccc(Cl)cc12 | Non-Toxic
CN1C[C@H](c2ccccc2)[C@]2(CN(C(=O)OC(C)(C)C)C/C(=C\c3ccccc3)C2=O)[C@]12C(=O)Nc1ccccc12 | Non-Toxic
CN1C[C@H](c2ccccc2)[C@H](C(=O)/C=C/c2ccccc2)[C@]12C(=O)Nc1ccc(Cl)cc12 | Toxic
CN1C[C@H](c2ccccc2)[C@]2(COC/C(=C\c3ccccc3)C2=O)[C@]12C(=O)Nc1ccc(F)cc12 | Non-Toxic
CN1C[C@H](c2ccccc2)[C@]2(CCC/C(=C\c3ccccc3)C2=O)[C@]12C(=O)Nc1ccccc12 | Non-Toxic
CN1C[C@H](c2ccccc2)[C@]2(CCC/C(=C\c3ccccc3)C2=O)[C@]12C(=O)Nc1ccc(F)cc12 | Non-Toxic

The reported measurements were obtained from ChEMBL document CHEMBL5584293.
